- Test system: SK-MEL-28
- assay.explanation: NCI tumour cell line growth inhibition, 48 h
The source made the active and inactive calls. No stated cut-off is given here; in the data, active = GI50 up to about 1.1 µM and inactive = higher.
property: GI50

CN(C)S(=O)(=O)Nc1ccccn1 : > 100 µM (inactive)
[N-]=[N+]=Nc1c(Cc2ccccc2)c(Cl)nc2ccccc12 : 45.5 µM (inactive)
C/C(Cl)=N/OC(=O)Nc1ccc(S(N)(=O)=O)c(C)c1 : 13.6 µM (inactive)
[N-]=[N+]=Nc1cc(=O)[nH]c2ccccc12 : > 100 µM (inactive)
CS(=O)(=O)c1cc(=O)c2ccccc2s1 : 3.72 µM (inactive)
COc1ccc(/N=N/C(=O)NC(CC(C)C)C(=O)NC(CC(C)C)C(=O)O)cc1 (stereo not drawn) : 17.8 µM (inactive)
S=C(NCc1ccccc1)c1nc[nH]c1C(=S)NCc1ccccc1 : 12.4 µM (inactive)

Query: Report GI50 on SK-MEL-28 for this entry: Cc1ccc(Nc2nc(N)nc3c2ncn3C2OC(CO)C(O)C2O)cc1 (stereo not drawn)
Result: > 100 µM (inactive)
